# Subject Of Test: T1, EsCas13d, nuclease-dead (Eubacterium siraeum, UniProt B0MS50, R295A;H300A;R849A;H854A)
# T1 sequence: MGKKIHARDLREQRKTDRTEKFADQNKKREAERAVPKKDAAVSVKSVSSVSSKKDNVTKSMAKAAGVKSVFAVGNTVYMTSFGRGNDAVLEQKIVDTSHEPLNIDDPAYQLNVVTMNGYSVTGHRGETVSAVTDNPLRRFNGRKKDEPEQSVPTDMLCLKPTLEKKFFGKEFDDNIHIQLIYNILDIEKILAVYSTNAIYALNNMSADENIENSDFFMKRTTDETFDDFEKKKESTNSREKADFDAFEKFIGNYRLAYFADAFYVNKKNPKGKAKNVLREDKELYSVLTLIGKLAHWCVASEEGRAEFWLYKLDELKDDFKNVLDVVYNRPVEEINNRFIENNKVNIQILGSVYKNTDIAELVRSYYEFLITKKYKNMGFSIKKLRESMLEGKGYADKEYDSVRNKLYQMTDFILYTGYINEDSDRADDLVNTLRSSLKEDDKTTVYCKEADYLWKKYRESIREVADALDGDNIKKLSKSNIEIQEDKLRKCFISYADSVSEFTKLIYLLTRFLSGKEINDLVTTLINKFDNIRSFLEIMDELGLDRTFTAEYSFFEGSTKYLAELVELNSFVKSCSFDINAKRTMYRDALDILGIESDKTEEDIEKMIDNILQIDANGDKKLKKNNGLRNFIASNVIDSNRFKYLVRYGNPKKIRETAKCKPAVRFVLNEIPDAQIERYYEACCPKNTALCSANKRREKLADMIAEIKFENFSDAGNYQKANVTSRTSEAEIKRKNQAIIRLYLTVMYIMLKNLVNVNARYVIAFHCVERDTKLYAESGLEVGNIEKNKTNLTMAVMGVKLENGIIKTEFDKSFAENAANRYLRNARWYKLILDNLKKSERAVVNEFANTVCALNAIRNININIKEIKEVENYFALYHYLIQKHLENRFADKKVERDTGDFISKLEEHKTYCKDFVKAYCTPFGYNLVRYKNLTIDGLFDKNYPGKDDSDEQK
# Experimental Protocol: crRNA (strand 1, pre-loaded); Mg2+; 40 mM Tris-HCl pH 7.5, 150 mM NaCl, 6 mM MgCl2, 1 mM DTT, 0.1% Tween-20, 0.2 mg/ml BSA; 25 C; 10 min per concentration, then washed
# Settings: tags: His6-TwinStrep-SUMO cleaved; N-terminal SNAP kept (SNAP-Surface 488); label: 3' end held by stalled T7 RNA polymerase
Please go through the items and note down their pKd.
One number for each entry, as −log10 of the molar value.

Recorded results for 7 binders are shown here.
target 1 A9G,U19C (mixed) RNA 1: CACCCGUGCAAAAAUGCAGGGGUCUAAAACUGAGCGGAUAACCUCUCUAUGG RNA 2: GGGAAUGGAUCCACAUCUACGAAUUCGUACCACAGAGAGGUUGUCCGCUCACCGAGAUCGGAAGAGCACACGU :: 7.47
target 1 insA 3' of 11,insU 3' of 7 (mixed) RNA 1: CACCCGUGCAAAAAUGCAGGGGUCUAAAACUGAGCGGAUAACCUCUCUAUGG RNA 2: GGGAAUGGAUCCACAUCUACGAAUUCGUACCAUAGAGAGGUAUAUCUCGCUCACCGAGAUCGGAAGAGCACACGU :: 7.32
target 1 C21U,C22U (mixed) RNA 1: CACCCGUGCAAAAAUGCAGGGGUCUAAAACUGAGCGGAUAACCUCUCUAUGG RNA 2: GGGAAUGGAUCCACAUCUACGAAUUCGUAUUAUAGAGAGGUUAUCCGCUCACCGAGAUCGGAAGAGCACACGU :: 7.54
target 1 U3G,C7G (mixed) RNA 1: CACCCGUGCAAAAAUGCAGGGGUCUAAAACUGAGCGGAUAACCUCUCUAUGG RNA 2: GGGAAUGGAUCCACAUCUACGAAUUCGUACCAUAGAGAGGUUAUGCGCGCACCGAGAUCGGAAGAGCACACGU :: 8.22
target 1 MT 5'PFS UAG 3'PFS CGA (mixed) RNA 1: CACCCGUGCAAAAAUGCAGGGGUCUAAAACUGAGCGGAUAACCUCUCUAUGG RNA 2: GGGAAUGGAUCCACAUCUACGAAUUCUAGCCAUAGAGAGGUUAUCCGCUCACGAAGAUCGGAAGAGCACACGU :: 7.57
target 2 MT 5'PFS CUG 3'PFS UAU (mixed) RNA 1: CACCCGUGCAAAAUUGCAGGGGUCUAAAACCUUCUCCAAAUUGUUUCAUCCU RNA 2: GGGAAUGGAUCCACAUCUACGAAUUCCUGAGGAUGAAACAAUUUGGAGAAGUAUAGAUCGGAAGAGCACACGU :: 8.28
target 2 MT 5'PFS GUG 3'PFS CCA (mixed) RNA 1: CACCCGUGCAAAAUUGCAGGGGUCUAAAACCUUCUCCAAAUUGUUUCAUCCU RNA 2: GGGAAUGGAUCCACAUCUACGAAUUCGUGAGGAUGAAACAAUUUGGAGAAGCCAAGAUCGGAAGAGCACACGU :: 7.67

Below: the item to evaluate.
## Input Reported pKd, binder target 1 G5C,U11A (mixed) RNA 1: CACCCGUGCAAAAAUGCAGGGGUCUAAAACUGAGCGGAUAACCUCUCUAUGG RNA 2: GGGAAUGGAUCCACAUCUACGAAUUCGUACCAUAGAGAGGAUAUCCCCUCACCGAGAUCGGAAGAGCACACGU : ____
## Output 7.34
